system: OVCAR-3; test: Growth inhibition of human OVCAR-3 cells assessed as cell growth at 10 uM incubated for 48 hrs by sulforhodamine B assay relative to control; format: functional; conditions: read-out: Activity
Would you mind telling me the reported growth at 10 µM of each entry?
Answers are plain numbers, in %.

Look over these answered cases.
CC(=O)Nc1cccc(NC(=O)c2ccc(C(=O)Nc3cc(CO)cc(NC(C)=O)c3)cc2)c1 | 126
CC(=O)Nc1ccc(C(=O)Nc2cc(CO)cc(NC(C)=O)c2)cc1 | 123
CCN(CC)CC(=O)Nc1ccc(C(=O)Nc2cc(CO)cc(NC(C)=O)c2)cc1 | 116
CC(=O)Nc1cc(CO)cc(NC(=O)c2ccc(C(=O)NCCCN3CCOCC3)cc2)c1 | 118

Give growth at 10 µM for each of the items listed below.
1. CC(=O)Nc1cc(CO)cc(NC(=O)c2ccc(C(=O)Nc3cc(CO)cc(NC(C)=O)c3)cc2)c1
2. CCN(CC)CC(=O)Nc1cccc(C(=O)Nc2cc(CO)cc(NC(C)=O)c2)c1
3. CC(=O)Nc1cc(CO)cc(NC(=O)c2ccc(NC(=O)CCCN3CCOCC3)cc2)c1
4. CC(=O)Nc1cc(CO)cc(NC(=O)c2ccccc2)c1
5. CC(=O)Nc1cccc(NC(=O)c2ccc(C(=O)Nc3cc(CCl)cc(NC(C)=O)c3)cc2)c1
6. CC(=O)Nc1cc(CCl)cc(NC(=O)c2ccc(C(=O)NCCCN(C)C)cc2)c1

1. 139
2. 126
3. 121
4. 118
5. 128
6. 106

Quick check: growth at 10 µM of CC(=O)Nc1cc(CO)cc(NC(=O)c2cccc(NC(=O)CCCN3CCOCC3)c2)c1 ?
145

----------
tested on: SW-620; experiment: Growth inhibition of human SW-620 cells assessed as cell growth at 10 uM incubated for 48 hrs by sulforhodamine B assay relative to control; type: functional; details: read-out: Activity
propertyName: growth at 10 µM (%)
Give bare numbers, in %.

CC(=O)Nc1cc(CO)cc(NC(=O)c2ccc(C(=O)Nc3cccc(NC(=O)CCCN(C)C)c3)cc2)c1 | 98.2
CCN(CC)CC(=O)Nc1cccc(C(=O)Nc2cc(CO)cc(NC(C)=O)c2)c1 | 115
CC(=O)Nc1cc(CO)cc(NC(=O)c2ccc(C(=O)NCCCN3CCOCC3)cc2)c1 | 102
CC(=O)Nc1ccc(C(=O)Nc2cc(CO)cc(NC(C)=O)c2)cc1 | 118
CC(=O)Nc1cccc(NC(=O)c2ccc(C(=O)Nc3cc(CCl)cc(NC(C)=O)c3)cc2)c1 | 114

# return growth at 10 µM for each item in the list
1. CC(=O)Nc1cccc(NC(=O)c2ccc(C(=O)Nc3cc(CO)cc(NC(C)=O)c3)cc2)c1
2. CC(=O)Nc1cc(CO)cc(NC(=O)c2ccc(C(=O)NCCCN(C)C)cc2)c1

1. 104
2. 107

----------
Provide the reported growth at 10 µM of each item.
system: HOP-62; assay: Growth inhibition of human HOP-62 cells assessed as cell growth at 10 uM incubated for 48 hrs by sulforhodamine B assay relative to control; type: functional; settings: read-out: Activity
Numbers only, in %.

Value sought for every listed compound: growth at 10 µM.
1. CC(=O)Nc1cc(CO)cc(NC(=O)c2ccc(C(=O)Nc3cc(CO)cc(NC(C)=O)c3)cc2)c1
2. CC(=O)Nc1cc(CO)cc(NC(=O)c2cccc(NC(=O)CCCN3CCOCC3)c2)c1
3. CCN(CC)CC(=O)Nc1cccc(C(=O)Nc2cc(CO)cc(NC(C)=O)c2)c1
4. CC(=O)Nc1cc(CO)cc(NC(=O)c2ccc(C(=O)Nc3cccc(NC(=O)CCCN(C)C)c3)cc2)c1
5. CC(=O)Nc1cc(CCl)cc(NC(=O)c2ccc(C(=O)Nc3cccc(NC(=O)CCCN(C)C)c3)cc2)c1
6. CC(=O)Nc1cc(CO)cc(NC(=O)c2ccc(C(=O)NCCCN(C)C)cc2)c1

[102, 103, 96.9, 77.7, 106, 110]

I would be grateful if you could provide growth at 10 µM for each of the following entries.
1. CC(=O)Nc1cccc(NC(=O)c2ccc(C(=O)Nc3cc(CCl)cc(NC(C)=O)c3)cc2)c1
2. CC(=O)Nc1cc(CO)cc(NC(=O)c2ccccc2)c1
3. CC(=O)Nc1cccc(NC(=O)c2ccc(C(=O)Nc3cc(CO)cc(NC(C)=O)c3)cc2)c1
4. CC(=O)Nc1ccc(C(=O)Nc2cc(CO)cc(NC(C)=O)c2)cc1
5. CC(=O)Nc1cc(CCl)cc(NC(=O)c2ccc(C(=O)NCCCN(C)C)cc2)c1
6. CCN(CC)CC(=O)Nc1ccc(C(=O)Nc2cc(CO)cc(NC(C)=O)c2)cc1

[112, 104, 106, 106, 106, 101]
